This collection of values is drawn from paper PMC6323060.

- Tested on: Salmonella typhi
- assayText: MIC, broth micro-dilution (CLSI)
- Type: cell-based
- cond: Salmonella enterica, Salmonella typhi clinical isolate, MHB, approx. 5 × 10^5 CFU/ml, overnight 37 °C, triplicate, read-out: Antimicrobial activity MIC
So I've got a bunch of molecules here, and I need their MIC values.
Unit µg/mL implied. Number only.

Return value of MIC for input CC(C)(O/N=C(\C(=O)N[C@@H]1C(=O)N2C(C(=O)[O-])=C(C[n+]3ccccc3)CS[C@H]12)c1csc(N)n1)C(=O)O , no commentary.
4

Return value of MIC for input CCN1CCN(C(=O)N[C@@H](C(=O)N[C@@H]2C(=O)N3[C@@H]2SC(C)(C)[C@@H]3C(=O)O)c2ccccc2)C(=O)C1=O , no commentary.
4

Return value of MIC for input CC1(C)S[C@@H]2[C@H](NC(=O)[C@H](N)c3ccccc3)C(=O)N2[C@H]1C(=O)O , no commentary.
2
